Reference for the values: patent US11814375B2

Please respond with reported IC50 for every item in the list.
Sequence of the target: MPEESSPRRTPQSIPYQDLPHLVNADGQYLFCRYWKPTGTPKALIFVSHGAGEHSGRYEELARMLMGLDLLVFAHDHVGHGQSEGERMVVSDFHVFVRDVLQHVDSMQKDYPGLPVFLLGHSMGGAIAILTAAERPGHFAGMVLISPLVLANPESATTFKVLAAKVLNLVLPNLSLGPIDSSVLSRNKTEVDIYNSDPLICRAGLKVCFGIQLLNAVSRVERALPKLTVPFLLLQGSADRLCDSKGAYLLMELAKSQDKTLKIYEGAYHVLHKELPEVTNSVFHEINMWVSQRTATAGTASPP
Answers are plain numbers, in nM.

{"columns": ["Smiles Notation", "IC50 / nM"],
 "data": [
  ["O=C1CO[C@H]2CCN(C(=O)N3CC(c4ccc(Oc5ccccc5Cl)cc4)C3)C[C@H]2N1", 0.02]
]}

I have 6 molecules here; please give me IC50 for each one.
1. Cc1ccncc1Oc1ccc(C2CN(C(=O)N3CC[C@@H]4OCC(=O)N[C@@H]4C3)C2)cc1
2. O=C1CO[C@H]2CCN(C(=O)N3CC(c4ccc(Oc5cncc(F)c5)cc4)C3)C[C@H]2N1
3. Cc1ccc(C)c(Oc2ccc(C3CN(C(=O)N4CC[C@@H]5OCC(=O)N[C@@H]5C4)C3)cc2)n1
4. COc1ccnc(Oc2ccc(C3CN(C(=O)N4CC[C@@H]5OCC(=O)N[C@@H]5C4)C3)cc2)n1
5. O=C1CO[C@H]2CCN(C(=O)N3CCC(c4ccc(Oc5ccc(F)cc5)cc4)CC3)C[C@H]2N1
6. O=C1CO[C@H]2CCN(C(=O)N3CCC(c4ccc(Oc5ccccc5)cc4)CC3)C[C@H]2N1

-- reply
1. 0.5
2. 4.3
3. 0.7
4. 12.7
5. 10.4
6. 17.8

---

Please respond with reported IC50 for every item in the list.
Target Or System: MAGL (Homo sapiens)
Sequence (Q99685 1-303): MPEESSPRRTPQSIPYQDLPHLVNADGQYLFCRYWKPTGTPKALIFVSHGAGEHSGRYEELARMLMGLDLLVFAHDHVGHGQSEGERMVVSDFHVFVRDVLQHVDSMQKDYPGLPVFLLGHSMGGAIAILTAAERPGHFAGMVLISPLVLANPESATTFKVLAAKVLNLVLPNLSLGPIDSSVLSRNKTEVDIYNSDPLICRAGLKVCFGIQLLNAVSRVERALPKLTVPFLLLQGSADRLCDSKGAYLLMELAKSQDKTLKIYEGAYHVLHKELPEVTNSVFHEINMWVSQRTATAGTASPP
Numbers only, in nM.

{"columns": ["Smiles Notation", "Recorded Measurement"],
 "data": [
  ["CC(C)(C)Cc1nnc(-c2ccc(C3CN(C(=O)N4CC[C@@H]5OCC(=O)N[C@@H]5C4)C3)cc2)o1", 8.5],
  ["O=C1CO[C@H]2CCN(C(=O)N3CC(c4ccc(Oc5nccc(C(F)(F)F)n5)cc4)C3)C[C@H]2N1", 13.4],
  ["O=C1CO[C@H]2CCN(C(=O)N3CC(c4ccc(Oc5cccc(Cl)c5)nc4)C3)C[C@H]2N1", 12.9]
]}

Please look at the following compound next.
IC50 measured on O=C1CO[C@H]2CCN(C(=O)N3CC(O)(c4ccc(Oc5ccccc5)cn4)C3)C[C@H]2N1 = 15.5
